Listed below: OD450 values for each entry.
Target: T1, VLP-hCLDN6 (human) (UniProt P56747)
T1 sequence: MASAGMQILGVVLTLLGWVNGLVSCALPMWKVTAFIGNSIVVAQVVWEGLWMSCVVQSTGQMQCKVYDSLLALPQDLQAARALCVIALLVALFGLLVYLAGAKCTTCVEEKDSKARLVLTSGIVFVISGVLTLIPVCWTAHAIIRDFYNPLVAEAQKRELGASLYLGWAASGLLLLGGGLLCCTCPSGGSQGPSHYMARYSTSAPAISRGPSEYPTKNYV
Test: ELISA, coated VLP-hCLDN6, 100 ul antibody sample, HRP-Protein A

binder	OD450
humanized antibody hAb-14 (antibody, V domains shown) VH: EVKLVESGGGLVQPGGSLRLSCAASGFTFNSYTMSWVRQAPGKRLEWVVTISSGGGRTYYPDSVKGRFTISRDNAKNTLYLQMSSLRAEDTAVYYCIRGDYRYDGFAYWGQGTLVTVSS VL: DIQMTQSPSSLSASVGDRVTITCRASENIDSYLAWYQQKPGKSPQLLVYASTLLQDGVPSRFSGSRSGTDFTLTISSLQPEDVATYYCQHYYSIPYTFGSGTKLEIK	0.97
humanized antibody hAb-8 (antibody, V domains shown) VH: EVKLVESGGGLVKPGGSLRLSCAASGFTFNSYTMSWVRQAPGKRLEWVVTISSGGGRTYYPDSVKGRFTISRDNAKNTLYLQMSSLRAEDTAVYYCIRGDYRYDGFAYWGQGTLVTVSS VL: DIQMTQSPSSLSASVGDRVTITCRASENIDSYLAWYQQKPGKSPQLLVYASTLLQDGVPSRFSGSRSGTQFTLTISSLQPEDFATYYCQHYYSIPYTFGSGTKLEIK	1.84
humanized antibody hAb-13 (antibody, V domains shown) VH: EVKLVESGGGLVKPGGSLRLSCAASGFTFNSYTMSWVRQTPAKRLEWVVTISSGGGRTYYPDSVKGRFTISRDNAKNTLYLQMSSLRAEDTAVYYCIRGDYRYDGFAYWGQGTLVTVSS VL: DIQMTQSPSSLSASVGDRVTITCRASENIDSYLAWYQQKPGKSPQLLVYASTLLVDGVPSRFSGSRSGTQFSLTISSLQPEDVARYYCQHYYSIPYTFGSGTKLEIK	1.95
